Human DNMT1 (Homo sapiens) measurements of pIC50, listed per entry.
Sequence (P26358 2-1632 isoform P26358-2): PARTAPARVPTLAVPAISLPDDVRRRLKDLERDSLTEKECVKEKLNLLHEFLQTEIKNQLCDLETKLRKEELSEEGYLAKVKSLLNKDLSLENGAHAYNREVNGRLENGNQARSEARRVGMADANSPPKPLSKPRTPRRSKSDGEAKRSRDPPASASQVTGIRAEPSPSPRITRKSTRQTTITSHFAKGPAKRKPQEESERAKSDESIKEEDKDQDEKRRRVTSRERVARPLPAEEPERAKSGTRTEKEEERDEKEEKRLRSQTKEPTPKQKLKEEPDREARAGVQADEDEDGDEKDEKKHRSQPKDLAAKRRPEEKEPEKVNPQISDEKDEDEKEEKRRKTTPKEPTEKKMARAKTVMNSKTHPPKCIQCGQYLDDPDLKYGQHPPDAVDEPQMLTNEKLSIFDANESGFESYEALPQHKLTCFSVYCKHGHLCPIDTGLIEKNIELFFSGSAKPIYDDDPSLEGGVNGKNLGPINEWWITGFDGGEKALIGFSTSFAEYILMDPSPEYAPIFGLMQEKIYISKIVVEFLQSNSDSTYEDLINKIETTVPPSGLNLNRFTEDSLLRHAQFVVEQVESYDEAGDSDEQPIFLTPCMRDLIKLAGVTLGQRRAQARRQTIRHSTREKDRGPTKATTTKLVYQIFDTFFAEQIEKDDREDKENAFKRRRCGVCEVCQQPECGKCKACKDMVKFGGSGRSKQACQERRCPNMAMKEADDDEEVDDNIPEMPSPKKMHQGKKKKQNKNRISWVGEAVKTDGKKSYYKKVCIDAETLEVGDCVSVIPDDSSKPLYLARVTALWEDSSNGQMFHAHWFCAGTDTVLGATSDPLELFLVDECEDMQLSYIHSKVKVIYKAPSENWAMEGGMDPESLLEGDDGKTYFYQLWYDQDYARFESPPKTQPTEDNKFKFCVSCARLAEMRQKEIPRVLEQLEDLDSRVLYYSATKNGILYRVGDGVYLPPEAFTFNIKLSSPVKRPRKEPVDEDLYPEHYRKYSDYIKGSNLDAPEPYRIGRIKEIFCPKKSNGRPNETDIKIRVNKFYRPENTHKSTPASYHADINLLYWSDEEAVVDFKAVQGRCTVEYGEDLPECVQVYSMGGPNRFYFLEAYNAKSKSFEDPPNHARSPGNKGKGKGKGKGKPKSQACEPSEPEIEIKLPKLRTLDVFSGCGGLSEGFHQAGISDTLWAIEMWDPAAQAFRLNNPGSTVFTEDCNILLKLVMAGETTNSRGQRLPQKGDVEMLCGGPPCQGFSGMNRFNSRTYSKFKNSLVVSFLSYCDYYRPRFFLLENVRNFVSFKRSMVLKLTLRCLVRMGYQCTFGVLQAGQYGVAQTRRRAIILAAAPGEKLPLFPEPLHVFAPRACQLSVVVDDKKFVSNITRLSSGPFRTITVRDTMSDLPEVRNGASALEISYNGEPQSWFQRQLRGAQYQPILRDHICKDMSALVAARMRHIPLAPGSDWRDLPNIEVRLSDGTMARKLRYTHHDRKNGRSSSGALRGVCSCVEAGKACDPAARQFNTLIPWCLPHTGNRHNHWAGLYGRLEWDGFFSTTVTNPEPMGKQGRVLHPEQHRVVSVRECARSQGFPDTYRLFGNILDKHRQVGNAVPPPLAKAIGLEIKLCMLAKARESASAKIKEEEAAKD
Please report pIC50 as the negative decimal logarithm of the molar concentration, giving only the number.

Below, each entry is followed by its recorded pIC50 result.
[[record]]
compound = "COc1cc(OC)c2c(-c3ccc(O)c(O)c3)cn(CC(=O)c3ccc(O)c(O)c3)c2c1"
measured_number = 5.16

[[record]]
compound = "O=C(Cn1cc(-c2ccc(O)cc2)c2ccccc21)c1ccc(O)cc1"
measured_number = 3.62

[[record]]
compound = "O=C(Cn1cc(-c2ccc(O)cc2)c2cc(O)ccc21)c1ccc(O)cc1"
measured_number = 4.48


### Prompt // lookup pIC50 | system=Human DNMT1 (Homo sapiens) | key= `COc1cc(OC)c2c(-c3ccc(O)cc3O)cn(CC(=O)c3ccc(O)cc3O)c2c1`
### Response 3.74

### Prompt // lookup pIC50 | system=Human DNMT1 (Homo sapiens) | key= `COc1ccc2c(-c3ccc(O)cc3)cn(CC(=O)c3ccc(O)cc3)c2c1`
### Response 4.14

### Prompt // lookup pIC50 | system=Human DNMT1 (Homo sapiens) | key= COc1cc(OC)c2c(-c3ccc(O)cc3)cn(CC(=O)c3ccc(O)cc3)c2c1 [Example 26]
### Response 4.39

### Prompt // lookup pIC50 | system=Human DNMT1 (Homo sapiens) | key= `COc1cc(OC)c2c(-c3cc(O)cc(O)c3)cn(CC(=O)c3cc(O)cc(O)c3)c2c1`
### Response 4.35

### Prompt // lookup pIC50 | system=Human DNMT1 (Homo sapiens) | key= `COc1cc(OC)c2c(-c3ccc(O)cc3)cn(C/C(=N/O)c3ccc(O)cc3)c2c1`
### Response 3.98
